Each recorded value in this set is attributed to the supplement of paper PMC10981050.

System: OCI-AML2
method-summary: cell viability relative to vehicle control; higher = less cytotoxic;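 also: after 48 h exposure read by CellTiter-Glo luminescence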
condition-label: 10 µM; SRSF2 genotype: wt/wt
Counter-ions that a name gives are not always drawn.
readout-name: cell viability (%)

molecule	units-of-measure	reported-measurement
Clc1ccc(COC(Cn2ccnc2)c2ccc(Cl)cc2Cl)cc1 (centres undefined) [Econazole nitrate (Spectazole)]	%	52.4
COc1cc(Br)c(Nc2nc(-c3c(C)nc4ncccn34)cs2)c(Br)c1	%	8.07
O=C(NCCN1CCOCC1)c1ccc(Cl)cc1	%	93.8
O=C1c2c(O)ccc(O)c2C(=O)c2c(NCCNCCO)ccc(NCCNCCO)c21 [Mitoxantrone 2HCl]	%	7.36
CN(N=O)C(=O)NC1C(O)OC(CO)C(O)C1O (centres undefined) [Streptozotocin (STZ)]	%	107
CCCC[S+]([O-])c1sc2nc(-c3cccs3)cc(-c3ccccc3)c2c1N (centres undefined)	%	98.8
O=C(O)/C=C/c1ccc(Cn2ccnc2)cc1 [Ozagrel HCl]	%	105
CNC(=O)c1ccc(C)c(-n2c(C)cc(OCc3ccc(F)cc3F)c(Br)c2=O)c1	%	72.2
O=c1[nH]cc(F)c(=O)[nH]1	%	55.1
O=C(Oc1coc(CSc2ncccn2)cc1=O)c1ccc([N+](=O)[O-])cc1	%	81.8
O=C(O)c1cc(C(=O)O)c2c(n1)C(=O)C(=O)c1cc(C(=O)O)[nH]c1-2 [Pyrroloquinoline Quinone Disodium Salt]	%	99.4
O=C1Cc2ccccc2N1	%	105
CC1OC(OC2CCC3(C)C(CCC4(C)C3C=CC3=C5CC(C)(C)CCC5(CO)C(O)CC34C)C2(C)CO)C(O)C(OC2OC(CO)C(O)C(O)C2O)C1O (centres undefined)	%	100
CNc1nc(-c2ccc3c(N)n[nH]c3c2)cc(N2C[C@@H](C(=O)NC3CCCCC3)CC[C@H]2C)n1	%	40.7
COc1cc(OC2CCN(C)CC2)ccc1Nc1ncc2c(n1)n(C1CCCC1)c(=O)n2C	%	13.5
CC1(C)C(O[C@@H]2OC[C@@H](O)[C@H](O)[C@H]2O)CC[C@]23CC24CC[C@]2(C)[C@@H]([C@@]5(C)CC[C@@H](C(C)(C)O)O5)[C@H](O)C[C@@]2(C)C4C[C@@H](O[C@@H]2O[C@H](CO)[C@@H](O)[C@H](O)[C@H]2O)C13 (some centres undefined) [Astragaloside IV]	%	102
Cn1cc(-c2ccncc2)c(-c2ccc(OCc3ccc4ccccc4n3)cc2)n1	%	68
CC(C)Oc1ccc2c(=O)c(-c3ccccc3)coc2c1	%	75.8
CC=C(C)C(=O)O [Tiglic acid]	%	98

* * *

Catalogue of cell viability values
Tested on: OCI-AML2
method-summary: cell viability relative to vehicle control; higher = less cytotoxic
condition-label: 10 µM; SRSF2 genotype: P95H/wt
readout-name: cell viability (%)

                                   compound  reported_measurement
0  CC1(C)CCC2(C(=O)O)C(O)CC3(C)C(=CCC4C5(C)CC(O)C(O)C(C)(CO)C5CCC43C)C2C1 (centres undefined)                   104
1  Cc1nc(-c2cn3c(n2)-c2ccc(-c4cnn(C(C)(C)C(N)=O)c4)cc2OCC3)n(C(C)C)n1                  8.91
2  Cc1ccc(/C=C2/C(=O)C3(C)CCC2C3(C)C)cc1 (centres undefined)                  89.4
3  COCCNCc1ccc(-c2cc3nccc(Oc4ccc(NC(=O)C5(C(=O)Nc6ccc(F)cc6)CC5)cc4F)c3s2)nc1                  14.1

* * *

System: MOLM14
method-summary: cell viability relative to vehicle control; higher = less cytotoxic
condition-label: 10 µM; SRSF2 genotype: SRSF2 wt/wt
Where a name gives a salt, the structure may show the parent alone.

molecule	target-or-test-system	cell viability, %
Cn1cc(C(=O)Nc2ccc3c(c2)OCCO3)c2ccccc2c1=O	MOLM14	82.8
CCOC(=O)C1=C(N)Oc2ccc(Cl)cc2C1C(C#N)C(=O)OCC (configuration not stated)	MOLM14	93.2
O=C(Nc1cc(Cl)cc(Cl)c1O)c1c(O)c(Cl)cc(Cl)c1Cl [Oxyclozanide]	MOLM14	103
CC(Oc1cc(-c2cnn(C3CCNCC3)c2)cnc1N)c1c(Cl)ccc(F)c1Cl [(S)-crizotinib]	MOLM14	86.2
O=C(O)c1cc(=O)c2c(OCC(O)COc3cccc4oc(C(=O)O)cc(=O)c34)cccc2o1 [Disodium Cromoglycate]	MOLM14	94.4
C=CC(=O)N[C@H]1CCOC[C@H]1Nc1ncc2cc(-c3c(Cl)c(OC)cc(OC)c3Cl)ccc2n1	MOLM14	79.8
COc1cc(O)c2c(=O)c(O[C@@H]3O[C@H](CO)[C@@H](O)[C@H](O)[C@H]3O)c(-c3ccc(O[C@@H]4O[C@H](CO)[C@@H](O)[C@H](O)[C@H]4O)cc3)oc2c1 [Complanatuside]	MOLM14	106
C[C@@H]1CCO[C@H]2Cn3cc(C(=O)NCc4ccc(F)cc4F)c(=O)c(O)c3C(=O)N12	MOLM14	94
Cn1c(=O)c(Oc2ccc(F)cc2F)cc2cnc(NC(CCO)CCO)nc21	MOLM14	99.8
CC1CCC2(C(=O)O)CCC3(C)C(=CCC4C5(C)CCC(OC6OCC(O)C(O)C6O)C(C)(C)C5CCC43C)C2C1(C)O (configuration not stated) [Ziyuglycoside II]	MOLM14	99
COc1cc2c3cc1Oc1c(OC)c(OC)cc4c1[C@@H](Cc1ccc(O)c(c1)Oc1ccc(cc1)C[C@@H]3N(C)CC2)N(C)CC4 [Berbamine (dihydrochloride)]	MOLM14	78.2
CN(C)CCNC(=O)c1cccn2c(=O)c3cc4ccccc4cc3nc12	MOLM14	0.24
CCc1cncnc1N1CCN(Cc2nc3ccc(C(F)(F)F)cc3[nH]2)CC1	MOLM14	66.5
O=c1ncccn1[C@@H]1O[C@H](CO)[C@@H](O)[C@H]1O	MOLM14	89.7
COc1ccc([C@]2(C#N)CC[C@@H](C(=O)O)CC2)cc1OC1CCCC1	MOLM14	100
COC(=O)C1(C)CCC2(C(=O)O)CCC3(C)C(=CCC4C5(C)CC(O)C(O)C(C)(CO)C5CCC43C)C2C1 (configuration not stated)	MOLM14	111
COc1ccccc1	MOLM14	101

* * *

Test system: MARIMO
method-summary: cell viability relative to vehicle control; higher = less cytotoxic
condition-label: 10 µM; SRSF2 genotype: SRSF2 P95H/wt
Where a name gives a salt, the structure may show the parent alone.
Please note: cell viability exactly at 80% is F. Only values below 80% get T.

In [3]: df
Out[3]:
                                    molecule  category_label
 0  COc1ccc([C@@H]2Sc3ccccc3N(CCN(C)C)C(=O)[C@@H]2OC(C)=O)cc1 [Diltiazem HCl]               F
 1  O=Cc1ccc(CO)o1 [5-Hydroxymethylfurfural]               F
 2   COc1cc(CCC(C)=O)ccc1O [Vanillylacetone]               F
 3    NS(=O)(=O)c1ccc(NC(=O)Nc2ccc(F)cc2)cc1               F
 4  CCN(CC)c1ccc2c(-c3ccccc3C(=O)O)c3ccc(=[N+](CC)CC)cc-3oc2c1 [Rhodamine B]               T
 5  COc1cc(NS(=O)(=O)c2ccc(N)cc2)nc(OC)n1 [Sulphadimethoxine]               F
 6  Nc1ncnc2c1c(-c1cnc3[nH]ccc3c1)nn2C1CCCC1               T
 7  Cc1ccc(-c2cc(C(F)(F)F)nn2-c2ccc(S(N)(=O)=O)cc2)cc1 [Celecoxib]               F
 8  COCCOc1cnc2ccn([C@H](C)c3nnc4c(F)cc(-c5cnn(C)c5)cn34)c(=O)c2c1               F
 9  C[C@@H](c1nc(-c2ccc(C#N)cc2)cs1)[C@](O)(Cn1cncn1)c1cc(F)ccc1F [Isavuconazole]               T
10            Nc1nonc1C(=Nc1ccc(F)c(Cl)c1)NO               F
11  CCCCCC1C(=O)CCC1CC(=O)OCCC (centres undefined) [Prohydrojasmon]               F
12  COc1cc(F)c(C(C)C)cc1-c1ccc(C(F)(F)F)cc1CN1C(=O)O[C@H](c2cc(C(F)(F)F)cc(C(F)(F)F)c2)[C@@H]1C [Anacetrapib (MK-0859)]               F
13      NC(=S)c1ccncc1 [Thioisonicotinamide]               F
14  C[C@@H]1COCCN1c1cc(C2([S@](C)(=N)=O)CC2)nc(-c2cc[nH]c3nccc2-3)n1               T
15  CCCCC(=O)O[C@H]1CC[C@H]2[C@@H]3CCc4cc(O)ccc4[C@H]3CC[C@]12C [Estradiol valerate]               F
16  CCCCCCCCOC(=O)c1cc(O)c(O)c(O)c1 [Octyl gallate]               T
